FYI, the data here is from ChEMBL document CHEMBL1127060.

- Organism: Cavia porcellus
- METHOD: Tested for relaxation of carbachol-contracted guinea pig taenia coli at 37 degree C; Potency equal to ATP
- Type: functional
Quick reference for Relative activity among some compounds
READOUT NAME: Relative activity

• Nc1nc(SCCc2ccc([N+](=O)[O-])cc2)nc2c1ncn2C1O[C@H](COP(=O)(O)O)[C@@H](O)[C@H]1O (some centres undefined) = 6.5
• CNc1ncnc2c1ncn2[C@@H]1O[C@H](COP(=O)(O)OP(=O)(O)OP(=O)(O)O)[C@@H](O)[C@H]1O = 5.8
• C=CCCCCSc1nc(N)c2ncn(C3O[C@H](COP(=O)(O)O)[C@@H](O)[C@H]3O)c2n1 (some centres undefined) = 5
